Would you kindly list Mean % WT Binding for each of these binders?
target: human CD33 variant R122F (human, UniProt P20138 18-364); assay: flow cytometry, IgG on cells expressing the mutant
Sequence (P20138 18-364 R122F limits assumed): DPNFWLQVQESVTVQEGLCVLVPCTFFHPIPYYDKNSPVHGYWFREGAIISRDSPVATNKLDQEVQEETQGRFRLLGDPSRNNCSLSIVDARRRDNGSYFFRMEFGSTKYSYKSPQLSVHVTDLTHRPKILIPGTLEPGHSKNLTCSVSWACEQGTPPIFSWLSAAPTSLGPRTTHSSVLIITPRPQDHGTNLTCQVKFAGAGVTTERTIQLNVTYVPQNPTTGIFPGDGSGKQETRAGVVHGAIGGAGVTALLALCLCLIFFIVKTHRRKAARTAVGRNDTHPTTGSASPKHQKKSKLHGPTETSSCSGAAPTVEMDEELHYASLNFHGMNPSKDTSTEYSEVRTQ

The binder Refmab #4 (antibody, human IgG1, V domains shown, Tested in IgG format; human IgG1 Fc silent (PG-LALA)) VH: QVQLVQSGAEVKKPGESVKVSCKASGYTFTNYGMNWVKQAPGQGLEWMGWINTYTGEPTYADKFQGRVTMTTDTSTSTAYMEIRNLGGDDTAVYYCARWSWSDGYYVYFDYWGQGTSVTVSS VL: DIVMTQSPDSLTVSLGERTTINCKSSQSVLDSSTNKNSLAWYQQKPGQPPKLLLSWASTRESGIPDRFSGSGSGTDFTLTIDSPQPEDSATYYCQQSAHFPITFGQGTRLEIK showed Mean % WT Binding equal to 58.1 % of WT

The binder Refmab #2 (antibody, human IgG1, V domains shown, Tested in IgG format; human IgG1 Fc silent (PG-LALA)) VH: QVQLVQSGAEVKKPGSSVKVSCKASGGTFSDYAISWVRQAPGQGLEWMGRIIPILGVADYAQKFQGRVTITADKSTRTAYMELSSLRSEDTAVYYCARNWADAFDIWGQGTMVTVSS VL: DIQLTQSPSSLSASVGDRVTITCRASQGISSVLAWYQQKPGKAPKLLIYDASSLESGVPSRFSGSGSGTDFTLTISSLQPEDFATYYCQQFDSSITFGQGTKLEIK showed Mean % WT Binding equal to 1.2 % of WT

The binder Refmab #3 (antibody, human IgG1, V domains shown, Tested in IgG format; human IgG1 Fc silent (PG-LALA)) VH: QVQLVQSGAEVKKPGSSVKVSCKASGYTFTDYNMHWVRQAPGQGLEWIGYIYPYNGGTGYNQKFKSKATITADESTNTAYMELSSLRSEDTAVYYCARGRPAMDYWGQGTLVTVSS VL: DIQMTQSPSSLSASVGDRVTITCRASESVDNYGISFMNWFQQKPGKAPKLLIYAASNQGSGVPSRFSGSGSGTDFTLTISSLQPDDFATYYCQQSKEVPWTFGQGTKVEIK showed Mean % WT Binding equal to 106 % of WT

The binder Refmab #1 (antibody, human IgG1, V domains shown, Tested in IgG format; human IgG1 (Absolute Antibody hP67.6, Cat. No. Ab00283-10.0); also called hP67.6) VH: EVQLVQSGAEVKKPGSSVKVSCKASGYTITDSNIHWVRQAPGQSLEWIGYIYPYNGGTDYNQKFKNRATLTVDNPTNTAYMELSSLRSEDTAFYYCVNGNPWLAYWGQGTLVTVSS VL: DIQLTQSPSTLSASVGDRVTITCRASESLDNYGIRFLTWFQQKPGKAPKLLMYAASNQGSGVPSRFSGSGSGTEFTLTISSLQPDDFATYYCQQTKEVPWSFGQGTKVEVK showed Mean % WT Binding equal to 110 % of WT

Measured values drawn from patent US20260242735A1 for this set.
